// provenance: ChEMBL document CHEMBL1961873

# assayed-target: Rho-associated protein kinase 1 (Homo sapiens) (UniProt Q13464)
# Sequence (Q13464 2-1354 limits assumed): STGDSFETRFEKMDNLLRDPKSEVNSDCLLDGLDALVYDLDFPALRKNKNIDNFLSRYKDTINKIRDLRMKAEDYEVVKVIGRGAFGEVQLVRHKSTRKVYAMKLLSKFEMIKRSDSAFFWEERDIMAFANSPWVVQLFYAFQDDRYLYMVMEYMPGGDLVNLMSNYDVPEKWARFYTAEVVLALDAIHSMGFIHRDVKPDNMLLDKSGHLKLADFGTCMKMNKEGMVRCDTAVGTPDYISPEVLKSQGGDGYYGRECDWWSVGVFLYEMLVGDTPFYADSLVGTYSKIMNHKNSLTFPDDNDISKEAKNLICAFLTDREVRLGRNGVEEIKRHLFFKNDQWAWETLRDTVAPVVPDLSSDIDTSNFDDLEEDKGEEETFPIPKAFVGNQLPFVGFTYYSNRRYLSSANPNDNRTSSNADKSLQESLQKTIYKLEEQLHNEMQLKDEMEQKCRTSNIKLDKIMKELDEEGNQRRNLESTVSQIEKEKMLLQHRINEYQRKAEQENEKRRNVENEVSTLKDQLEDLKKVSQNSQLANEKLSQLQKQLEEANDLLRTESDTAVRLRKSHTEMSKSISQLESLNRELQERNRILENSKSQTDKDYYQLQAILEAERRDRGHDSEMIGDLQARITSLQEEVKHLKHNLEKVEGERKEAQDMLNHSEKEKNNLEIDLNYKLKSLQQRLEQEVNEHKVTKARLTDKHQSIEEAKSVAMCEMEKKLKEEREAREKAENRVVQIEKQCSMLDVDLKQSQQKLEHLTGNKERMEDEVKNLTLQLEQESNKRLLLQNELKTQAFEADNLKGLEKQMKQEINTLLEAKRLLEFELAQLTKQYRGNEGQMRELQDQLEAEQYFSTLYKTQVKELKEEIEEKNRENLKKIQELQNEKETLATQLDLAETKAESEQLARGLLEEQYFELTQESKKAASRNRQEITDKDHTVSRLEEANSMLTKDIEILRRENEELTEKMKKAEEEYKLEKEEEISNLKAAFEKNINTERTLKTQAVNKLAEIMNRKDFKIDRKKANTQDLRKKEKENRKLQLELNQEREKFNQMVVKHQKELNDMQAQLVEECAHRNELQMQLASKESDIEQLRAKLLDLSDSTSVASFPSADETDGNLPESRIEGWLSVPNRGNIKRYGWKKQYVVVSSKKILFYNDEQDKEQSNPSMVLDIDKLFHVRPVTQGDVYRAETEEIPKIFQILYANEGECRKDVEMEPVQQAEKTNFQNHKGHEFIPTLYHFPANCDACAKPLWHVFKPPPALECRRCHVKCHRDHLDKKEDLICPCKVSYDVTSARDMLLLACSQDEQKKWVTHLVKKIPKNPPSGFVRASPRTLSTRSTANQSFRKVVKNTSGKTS
# conditions-used: at 0.1 µM
recorded-metric: inhibition (%)
Your answer is read as %, so omit the unit and give the number.

compound	recorded-metric	measured-number
Cc1ccc(NC(=O)c2ccoc2)cc1-c1ccc(C(=O)NCC2CC2)cc1	inhibition	0

Report inhibition under test system Rho-associated protein kinase 1 (Homo sapiens) (UniProt Q13464) for Fc1ccc(-c2ncn(C3CCNCC3)c2-c2ccnc(Oc3ccc(Oc4ccccc4)cc3)n2)cc1 .
2.39

System Rho-associated protein kinase 1 (Homo sapiens) (UniProt Q13464). Read-out inhibition. Item CN(C)c1ccc2c(c1)/C(=C/Nc1ccc(S(N)(=O)=O)cc1)C(=O)N2 . Report value.
0.76

State inhibition on Rho-associated protein kinase 1 (Homo sapiens) (UniProt Q13464). Entry: COc1cccc(/C=N/Nc2ncnc3c2cnn3-c2cccc(OC)c2)c1
2.52

Report value: inhibition, system: Rho-associated protein kinase 1 (Homo sapiens) (UniProt Q13464), compound: CCS(=O)(=O)c1ccc(OC)c(Nc2ncc(-c3cccc(-c4ccccc4F)c3)o2)c1
-2.02

// fetch inhibition; item: C[C@@H](Oc1cc(-n2cnc3ccc(OCC4CCN(C)CC4)cc32)sc1C(N)=O)c1ccccc1Cl ; system: Rho-associated protein kinase 1 (Homo sapiens) (UniProt Q13464)
2.64

Under Rho-associated protein kinase 1 (Homo sapiens) (UniProt Q13464), report inhibition for NC(=O)c1cc(-c2ccncc2)cc(-c2ccccc2)c1N
1.71

Consider the compound Fc1ccc(-c2ncn(C3CCNCC3)c2-c2ccnc(Oc3ccc4c(c3)OCO4)n2)cc1 tested on Rho-associated protein kinase 1 (Homo sapiens) (UniProt Q13464); state its inhibition.
2.94

GET inhibition | system: Rho-associated protein kinase 1 (Homo sapiens) (UniProt Q13464) | item: COc1ccc2cc(-c3c(-c4ccncc4)nc(-c4ccc([S+](C)[O-])cc4C)n3C)ccc2c1 (stereo not given);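 further: values are mean percent inhibition of ROCK1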
-0.64

Output reported inhibition of the compound CNC(=O)c1cncc(/C=C/c2c(C)cccc2C)c1 on Rho-associated protein kinase 1 (Homo sapiens) (UniProt Q13464).
-0.35
